Biological target: Rac GTPase-activating protein 1 (Homo sapiens, UniProt Q9H0H5)
Sequence (Q9H0H5 whole entry): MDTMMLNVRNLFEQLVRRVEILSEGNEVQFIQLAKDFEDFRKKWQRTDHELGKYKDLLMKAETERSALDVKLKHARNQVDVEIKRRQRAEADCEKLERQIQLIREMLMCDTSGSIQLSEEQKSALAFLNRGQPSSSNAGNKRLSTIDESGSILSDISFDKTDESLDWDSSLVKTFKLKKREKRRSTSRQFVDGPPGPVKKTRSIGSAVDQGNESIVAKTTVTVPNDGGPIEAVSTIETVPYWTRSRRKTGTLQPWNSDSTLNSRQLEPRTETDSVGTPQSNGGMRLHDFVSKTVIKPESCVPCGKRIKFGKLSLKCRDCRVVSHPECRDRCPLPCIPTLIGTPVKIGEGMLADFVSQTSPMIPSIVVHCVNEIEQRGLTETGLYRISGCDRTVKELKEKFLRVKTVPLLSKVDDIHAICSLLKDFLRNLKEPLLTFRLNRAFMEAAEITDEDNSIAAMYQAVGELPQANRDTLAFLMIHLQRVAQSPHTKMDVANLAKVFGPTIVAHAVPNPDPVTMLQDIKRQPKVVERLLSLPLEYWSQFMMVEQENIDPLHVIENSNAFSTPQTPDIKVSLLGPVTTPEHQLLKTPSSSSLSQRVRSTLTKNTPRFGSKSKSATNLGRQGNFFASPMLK
Test: MgcRacGAP GTPase-activating activity inhibitors, confirmation, biochemical, ADP Hunter fluorescence, primary and confirmatory (AID 624330)
Type: functional
The source made the active and inactive calls.
measurement-kind: IC50

The reported Rac GTPase-activating protein 1 (Homo sapiens, UniProt Q9H0H5) IC50 of CCOc1cc(/C=N/NC(=O)C(OC)c2ccccc2)ccc1O (stereo not drawn) is 54.9 µM (active)

Item `COc1cc(/C=N/N2C(=O)c3ccccc3C2=O)ccc1O` ; assay system Rac GTPase-activating protein 1 (Homo sapiens, UniProt Q9H0H5); IC50 reported as 50.2 µM (active)

Item `CCOc1cc(/C=C2\C(=O)N(CCc3ccc(OC)c(OC)c3)C(C)=C2C(=O)OC)ccc1O` ; assay system Rac GTPase-activating protein 1 (Homo sapiens, UniProt Q9H0H5); IC50 reported as 118 µM (active)

Result for `CC(=O)CC(=O)Nc1ccc(Nc2ccccc2)cc1` , tested on Rac GTPase-activating protein 1 (Homo sapiens, UniProt Q9H0H5), IC50: 178 µM (active)

Form field, IC50 with Rac GTPase-activating protein 1 (Homo sapiens, UniProt Q9H0H5), item `c1ccc(CNC23CC4CC(CC(C4)C2)C3)nc1` : 110 µM (active)

Measured IC50 for this entry N#CC1=C(S)N(c2ccccc2)C(c2ccc(-c3ccccc3Cl)o2)NC1=O (stereo not drawn) on Rac GTPase-activating protein 1 (Homo sapiens, UniProt Q9H0H5): 99.8 µM (active)

Result for `COc1cccc(OC)c1OCCCN1CCOCC1` , tested on Rac GTPase-activating protein 1 (Homo sapiens, UniProt Q9H0H5), IC50: 162 µM (active)

Entry `Cc1ccc(S(=O)(=O)NC2=CC(=Nc3ccc(O)cc3)C(=O)c3ccccc32)cc1` under Rac GTPase-activating protein 1 (Homo sapiens, UniProt Q9H0H5) had IC50 of 78.2 µM (active)

Reading of IC50 for COc1ccc(NC2CCCN(C(=O)c3ccc(C)nc3)C2)cc1 (stereo not drawn) with Rac GTPase-activating protein 1 (Homo sapiens, UniProt Q9H0H5): 161 µM (active)

# lookup: `CCOC(=O)c1c(NC(=O)CN(C)C2CCN(C)CC2)sc(C(=O)Nc2ccccc2)c1C` on Rac GTPase-activating protein 1 (Homo sapiens, UniProt Q9H0H5), IC50 = 76.9 µM (active)

Noted IC50 for CSCc1ccc(C(=O)N2CCCC(Nc3ccc4c(c3)OCCO4)C2)o1 (stereo not drawn) , tested on Rac GTPase-activating protein 1 (Homo sapiens, UniProt Q9H0H5): 152 µM (active)

Simply: `O=C1ON=C(c2ccccc2)/C1=C/c1ccco1` , Rac GTPase-activating protein 1 (Homo sapiens, UniProt Q9H0H5), IC50 = 91 µM (active)

Record `Cc1ccc(C)c(S(=O)(=O)N2CCN(CC(=O)N3CCc4ccccc4C3)CC2)c1` / Rac GTPase-activating protein 1 (Homo sapiens, UniProt Q9H0H5), IC50 recorded as 93 µM (active)

* * *

Molecular target: Fatty acid synthase (Homo sapiens)
Sequence (P49327 whole entry, the tested form may be a part): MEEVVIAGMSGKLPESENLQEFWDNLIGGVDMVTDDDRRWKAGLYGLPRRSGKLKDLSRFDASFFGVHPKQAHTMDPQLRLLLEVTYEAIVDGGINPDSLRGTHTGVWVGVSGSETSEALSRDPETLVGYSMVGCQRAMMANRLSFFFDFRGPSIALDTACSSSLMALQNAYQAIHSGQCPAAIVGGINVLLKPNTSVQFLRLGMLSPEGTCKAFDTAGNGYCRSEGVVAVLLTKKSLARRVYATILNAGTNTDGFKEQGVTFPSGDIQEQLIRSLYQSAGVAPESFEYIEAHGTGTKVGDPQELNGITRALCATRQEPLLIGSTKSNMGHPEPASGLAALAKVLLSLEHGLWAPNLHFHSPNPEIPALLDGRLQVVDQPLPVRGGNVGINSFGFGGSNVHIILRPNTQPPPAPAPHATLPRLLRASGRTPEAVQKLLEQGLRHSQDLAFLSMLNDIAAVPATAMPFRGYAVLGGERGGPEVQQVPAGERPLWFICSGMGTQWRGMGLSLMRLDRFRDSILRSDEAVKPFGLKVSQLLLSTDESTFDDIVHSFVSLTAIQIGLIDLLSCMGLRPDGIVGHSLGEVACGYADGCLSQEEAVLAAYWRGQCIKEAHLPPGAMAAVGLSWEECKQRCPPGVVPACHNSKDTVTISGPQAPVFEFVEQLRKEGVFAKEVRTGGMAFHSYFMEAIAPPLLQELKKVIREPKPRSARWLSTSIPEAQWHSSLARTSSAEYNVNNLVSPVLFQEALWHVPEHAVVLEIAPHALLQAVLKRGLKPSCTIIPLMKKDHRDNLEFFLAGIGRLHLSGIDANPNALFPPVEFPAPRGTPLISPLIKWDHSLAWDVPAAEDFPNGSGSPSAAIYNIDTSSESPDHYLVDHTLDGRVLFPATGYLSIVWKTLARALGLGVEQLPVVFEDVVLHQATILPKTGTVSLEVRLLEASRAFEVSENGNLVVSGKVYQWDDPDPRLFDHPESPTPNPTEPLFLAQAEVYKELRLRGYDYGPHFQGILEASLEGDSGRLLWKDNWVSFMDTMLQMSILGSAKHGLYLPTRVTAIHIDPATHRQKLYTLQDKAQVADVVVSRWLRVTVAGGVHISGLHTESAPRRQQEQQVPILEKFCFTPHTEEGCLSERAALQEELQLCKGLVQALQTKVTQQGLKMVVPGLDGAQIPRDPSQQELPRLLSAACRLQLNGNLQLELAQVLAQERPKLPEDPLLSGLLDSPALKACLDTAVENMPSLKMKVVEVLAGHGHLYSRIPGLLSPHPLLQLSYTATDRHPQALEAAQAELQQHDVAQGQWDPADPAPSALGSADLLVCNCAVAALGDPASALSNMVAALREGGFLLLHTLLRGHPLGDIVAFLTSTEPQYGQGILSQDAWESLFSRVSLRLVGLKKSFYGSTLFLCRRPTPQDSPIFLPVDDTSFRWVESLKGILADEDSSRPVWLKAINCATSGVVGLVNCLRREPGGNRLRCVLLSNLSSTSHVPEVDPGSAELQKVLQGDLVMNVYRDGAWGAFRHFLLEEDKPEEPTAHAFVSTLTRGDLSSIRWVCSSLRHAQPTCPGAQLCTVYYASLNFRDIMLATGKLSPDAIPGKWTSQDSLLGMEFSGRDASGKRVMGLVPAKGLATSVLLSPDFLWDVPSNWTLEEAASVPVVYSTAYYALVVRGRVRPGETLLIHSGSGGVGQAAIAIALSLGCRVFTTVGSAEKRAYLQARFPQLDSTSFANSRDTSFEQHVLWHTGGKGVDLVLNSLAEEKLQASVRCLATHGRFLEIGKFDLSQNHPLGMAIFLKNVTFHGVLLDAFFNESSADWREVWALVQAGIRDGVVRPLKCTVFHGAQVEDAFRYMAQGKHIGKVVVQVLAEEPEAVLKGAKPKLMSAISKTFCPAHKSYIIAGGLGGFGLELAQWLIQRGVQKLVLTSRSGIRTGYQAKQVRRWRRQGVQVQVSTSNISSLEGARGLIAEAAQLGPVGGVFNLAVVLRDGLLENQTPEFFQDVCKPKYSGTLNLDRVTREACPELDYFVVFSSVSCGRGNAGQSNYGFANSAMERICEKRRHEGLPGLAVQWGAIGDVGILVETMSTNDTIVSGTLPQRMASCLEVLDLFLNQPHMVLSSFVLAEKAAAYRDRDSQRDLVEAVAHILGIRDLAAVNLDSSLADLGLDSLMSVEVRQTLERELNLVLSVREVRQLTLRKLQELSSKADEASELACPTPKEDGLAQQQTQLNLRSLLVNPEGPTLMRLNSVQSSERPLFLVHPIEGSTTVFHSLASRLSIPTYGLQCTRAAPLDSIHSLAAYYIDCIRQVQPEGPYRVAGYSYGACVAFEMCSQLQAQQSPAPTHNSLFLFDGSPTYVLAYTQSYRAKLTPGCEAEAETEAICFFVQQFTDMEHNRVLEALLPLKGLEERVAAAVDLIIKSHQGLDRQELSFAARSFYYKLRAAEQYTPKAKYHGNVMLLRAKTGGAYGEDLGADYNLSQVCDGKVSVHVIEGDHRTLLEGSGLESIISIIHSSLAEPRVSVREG
Test: FAS thioesterase domain inhibitors, dose response, biochemical, kinetic fluorescence intensity (AID 624326);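 note: rate of fluorescence rise from hydrolysis of a fluorogenic O-methyl fluorescein ester substrate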
Format: functional
Active and inactive are the calls of the source.
Outcome field: choose from active, inactive

Field: example entries. Status: answers known.
- compound: "COc1cccc(-n2c(CN3CCN(c4ccccn4)CC3)nc3ccc([N+](=O)[O-])cc3c2=O)c1"
  category: "active"
- compound: "O=C1CC(c2cccc([N+](=O)[O-])c2)c2c(ccc3ccccc23)N1 (centres undefined)"
  category: "inactive"

Q: Which result was noted for this compound in the test: `Cc1ccc(OCCNC(=O)CNC(=O)c2ccc(Cl)c([N+](=O)[O-])c2)cc1`
Result: active

Q: Which outcome did this test record for the compound `N#Cc1cc(-c2ccccc2)nc(Oc2ccc(Cl)cc2)n1` ?
Result: active

Q: Please let me know the test result on file for `CCOC(=O)[C@]12Cc3cc(C)ccc3[C@H]1N(C1CCCCC1)C(=O)c1ccccc12` .
Result: active

Q: Status in this test for `CCN(Cc1ccccc1)c1ccc(N=Nc2nn(C)c(C)c2[N+](=O)[O-])cc1` ?
Result: active

Q: # outcome recorded in this test, key = `O=C(Nc1cccc(C(=O)O)c1)/C(=C\c1cccc([N+](=O)[O-])c1)NC(=O)c1ccc(Br)cc1`
Result: active

Q: What was the test verdict on `Cc1cc2c(=O)oc(-c3ccccc3Br)nc2s1` ?
Result: active

Q: Given `O=[N+]([O-])c1ccc(Sc2nnc(-c3ccccc3)[nH]2)nc1` , state the outcome it received in this test.
Result: active
